Recorded values, source patent US20210275641A1.

- target-of-assay: T1, human high affinity trimeric IL-2 receptor (CD25/CD122/CD132) (human, UniProt P01589 22-272; P14784 27-551; P31785 23-369)
- T1 sequence 1: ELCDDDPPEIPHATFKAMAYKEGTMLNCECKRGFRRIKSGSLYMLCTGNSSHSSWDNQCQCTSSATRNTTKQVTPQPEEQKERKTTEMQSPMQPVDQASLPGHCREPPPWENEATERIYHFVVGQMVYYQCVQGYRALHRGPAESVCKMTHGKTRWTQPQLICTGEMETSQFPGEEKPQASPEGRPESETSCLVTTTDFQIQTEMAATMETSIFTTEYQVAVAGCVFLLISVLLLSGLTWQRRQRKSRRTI
- T1 sequence 2: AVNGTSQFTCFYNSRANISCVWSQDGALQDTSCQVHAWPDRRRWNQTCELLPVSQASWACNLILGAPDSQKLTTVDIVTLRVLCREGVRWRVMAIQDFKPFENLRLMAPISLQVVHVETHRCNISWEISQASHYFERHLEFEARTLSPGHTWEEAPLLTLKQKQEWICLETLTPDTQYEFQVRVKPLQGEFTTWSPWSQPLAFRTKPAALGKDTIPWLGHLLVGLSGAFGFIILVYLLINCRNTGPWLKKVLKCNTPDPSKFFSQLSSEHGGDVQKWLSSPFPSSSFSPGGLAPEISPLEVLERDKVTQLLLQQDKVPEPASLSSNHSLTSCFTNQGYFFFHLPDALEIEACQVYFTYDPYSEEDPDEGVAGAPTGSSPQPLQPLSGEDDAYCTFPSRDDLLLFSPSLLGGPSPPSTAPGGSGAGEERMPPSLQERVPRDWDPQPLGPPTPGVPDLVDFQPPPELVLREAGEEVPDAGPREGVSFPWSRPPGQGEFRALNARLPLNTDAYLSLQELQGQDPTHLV
- T1 sequence 3: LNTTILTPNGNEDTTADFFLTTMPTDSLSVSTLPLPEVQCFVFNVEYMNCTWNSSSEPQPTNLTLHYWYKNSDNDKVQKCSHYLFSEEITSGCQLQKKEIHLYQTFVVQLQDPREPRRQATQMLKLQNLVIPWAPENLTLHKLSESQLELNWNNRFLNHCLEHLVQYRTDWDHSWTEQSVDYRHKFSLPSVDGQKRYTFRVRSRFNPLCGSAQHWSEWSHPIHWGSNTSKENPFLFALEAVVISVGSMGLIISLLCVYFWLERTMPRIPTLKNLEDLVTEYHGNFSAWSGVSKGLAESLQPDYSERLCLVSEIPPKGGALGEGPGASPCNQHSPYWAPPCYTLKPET
- experiment-description: cell-based or functional assay
endpoint: pSTAT5 ratio YT CD25/YT, dilution factor 32, lower table

| binder | measurement |
| --- | --- |
| DEH (ligand) cytokine: APTSSSTKKTQLQLEHLDLDLEMILNGINNYKNPKLTRMLTFKFYMPKKATELKHLQCLEEELKPLEEVLNLAQSKNFHLRPRDLISNINVIVLELKGSETTFMCEYADETATIVEFLNRWITFCHSIISTLT | 8.2 |
| TEH (ligand) cytokine: APTSSSTKKTQLQLEHLTLDLEMILNGINNYKNPKLTRMLTFKFYMPKKATELKHLQCLEEELKPLEEVLNLAQSKNFHLRPRDLISNINVIVLELKGSETTFMCEYADETATIVEFLNRWITFCHSIISTLT | 1.9 |
| hIL2 mutein REH (L18R, Q22E, Q126H) (ligand) APTSSSTKKTQLQLEHLRLDLEMILNGINNYKNPKLTRMLTFKFYMPKKATELKHLQCLEEELKPLEEVLNLAQSKNFHLRPRDLISNINVIVLELKGSETTFMCEYADETATIVEFLNRWITFCHSIISTLT | 1.6 |
| RYH (ligand) cytokine: APTSSSTKKTQLQLEHLRLDLYMILNGINNYKNPKLTRMLTFKFYMPKKATELKHLQCLEEELKPLEEVLNLAQSKNFHLRPRDLISNINVIVLELKGSETTFMCEYADETATIVEFLNRWITFCHSIISTLT | 8.7 |
| RKH (ligand) cytokine: APTSSSTKKTQLQLEHLRLDLKMILNGINNYKNPKLTRMLTFKFYMPKKATELKHLQCLEEELKPLEEVLNLAQSKNFHLRPRDLISNINVIVLELKGSETTFMCEYADETATIVEFLNRWITFCHSIISTLT | 5.5 |

a: NEH (ligand) cytokine: APTSSSTKKTQLQLEHLNLDLEMILNGINNYKNPKLTRMLTFKFYMPKKATELKHLQCLEEELKPLEEVLNLAQSKNFHLRPRDLISNINVIVLELKGSETTFMCEYADETATIVEFLNRWITFCHSIISTLT
b: RGH (ligand) cytokine: APTSSSTKKTQLQLEHLRLDLGMILNGINNYKNPKLTRMLTFKFYMPKKATELKHLQCLEEELKPLEEVLNLAQSKNFHLRPRDLISNINVIVLELKGSETTFMCEYADETATIVEFLNRWITFCHSIISTLT
Prompt: I need your help: which of the pair a , b has higher pSTAT5 ratio YT CD25/YT, dilution factor 32, lower table? Please reply using the label of the selected record.
Completion: a
